Values from patent US10221163B2

Below: a set of entries, each annotated with reported IC50.
Biological target: IMP-1 (Serratia marcescens, UniProt P52699)
Sequence (P52699 whole entry, looked up, species assumed): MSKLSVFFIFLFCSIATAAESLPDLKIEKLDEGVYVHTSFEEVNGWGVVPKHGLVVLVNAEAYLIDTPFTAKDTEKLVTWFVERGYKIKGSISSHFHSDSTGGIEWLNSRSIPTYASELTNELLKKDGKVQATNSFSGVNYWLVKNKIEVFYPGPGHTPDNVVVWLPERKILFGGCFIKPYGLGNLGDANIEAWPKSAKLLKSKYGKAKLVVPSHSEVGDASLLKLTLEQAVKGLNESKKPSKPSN
Assay: biochemical
Assay type: biochemical
Details: fluorescence assay, CCF2-FA substrate, 2 pM enzyme, 2 hours at 25° C.; read-out: IMP-1 IC50

{"columns": ["compound", "IC50, nM"],
 "data": [
  ["NCCNCCNS(=O)(=O)c1ccc(-c2ccc(N)nc2)c(-c2nn[nH]n2)c1S(N)(=O)=O [Example 482]", 1.14],
  ["Nc1nc2c(-c3ccc(S(=O)(=O)NCC4CCNC4)c(S(N)(=O)=O)c3-c3nnn[nH]3)cccc2s1.O=CO (centres unmarked) [Example 120, formate]", 0.258],
  ["NCCNS(=O)(=O)c1ccc(-c2cccc3[nH]c(C(F)(F)CN)nc23)c(-c2nn[nH]n2)c1S(N)(=O)=O [Example 445]", 0.37],
  ["NS(=O)(=O)c1ccc(-c2cccc3[nH]c(C(=O)O)nc23)c(-c2nn[nH]n2)c1S(N)(=O)=O [Example 8]", 0.361],
  ["Nc1ccc(-c2ccc(S(=O)(=O)N[C@@H]3CCNC3)c(S(N)(=O)=O)c2-c2nn[nH]n2)cn1 [Example 194]", 0.242],
  ["NS(=O)(=O)c1ccc(-c2ccc(S(=O)(=O)N[C@@H]3CCNC3)c(S(N)(=O)=O)c2-c2nnn[nH]2)cc1 [Example 135]", 0.229],
  ["NCCNS(=O)(=O)c1ccc(-c2cccc(NC[C@@H](O)CN)c2)c(-c2nn[nH]n2)c1S(N)(=O)=O [Example 352]", 4.39],
  ["CNCCNS(=O)(=O)c1ccc(-c2cccc3sc(N)nc23)c(-c2nnn[nH]2)c1S(N)(=O)=O [Example 31]", 2.02],
  ["NCc1csc(Nc2cccc(-c3ccc(S(=O)(=O)N[C@@H]4CCNC4)c(S(N)(=O)=O)c3-c3nn[nH]n3)c2)n1 [Example 290]", 0.448],
  ["CNc1ccc(-c2ccc(S(=O)(=O)NCCN)c(S(N)(=O)=O)c2-c2nn[nH]n2)cn1 [Example 243]", 0.312],
  ["NCc1nc2c(-c3ccc(S(=O)(=O)NC(CN)CN)c(S(N)(=O)=O)c3-c3nn[nH]n3)cccc2[nH]1 [Example 385]", 0.782],
  ["NCc1nc2c(-c3ccc(S(=O)(=O)N[C@@H]4CCNC4)c(S(N)(=O)=O)c3-c3nn[nH]n3)cccc2[nH]1 [Example 283]", 1.2],
  ["NCc1nc(-c2cccc(-c3ccc(S(=O)(=O)N[C@H]4CNC[C@H]4N)c(S(N)(=O)=O)c3-c3nn[nH]n3)c2)c[nH]1 [Example 462]", 1.29],
  ["Nc1ccc(-c2ccc(S(=O)(=O)N[C@H]3CNC[C@H]3O)c(S(N)(=O)=O)c2-c2nn[nH]n2)cn1 [Example 410]", 0.681]
]}

---

Molecular target: UniProt P52699
Assay: biochemical
Type: biochemical
Conditions: fluorescence assay, CCF2-FA substrate, 2 pM enzyme, 2 hours at 25° C.; read-out: IMP-1 IC50
property: log10 of IC50 (log10 of the value in nM)

{"columns": ["compound", "readout.number"],
 "data": [
  ["Nc1nc2c(-c3ccc(S(N)(=O)=O)c(S(N)(=O)=O)c3-c3nn[nH]n3)cccc2o1 [Example 4]", -0.45],
  ["NCCCNS(=O)(=O)c1ccc(-c2cc(F)cc3[nH]c(N)nc23)c(-c2nn[nH]n2)c1S(N)(=O)=O [Example 402]", -0.50],
  ["NC[C@H](CO)NS(=O)(=O)c1ccc(-c2ccnc(N)c2)c(-c2nn[nH]n2)c1S(N)(=O)=O [Example 362]", 0.98],
  ["Nc1ccc(-c2ccc(S(=O)(=O)NCC3(O)CNC3)c(S(N)(=O)=O)c2-c2nn[nH]n2)cn1 [Example 495]", -0.48],
  ["NS(=O)(=O)c1c(S(=O)(=O)N[C@@H]2CNC[C@@H]2O)ccc(-c2cccc3[nH]nnc23)c1-c1nn[nH]n1 [Example 412]", 0.41],
  ["Nc1nc2c(-c3ccc(S(=O)(=O)N[C@@H]4CNC[C@@H]4F)c(S(N)(=O)=O)c3-c3nnn[nH]3)cccc2s1 [Example 58]", -0.12],
  ["NS(=O)(=O)c1c(S(=O)(=O)N[C@H]2C[C@H](N)C2)ccc(-c2cccc3[nH]cnc23)c1-c1nn[nH]n1 [Example 200]", -0.56],
  ["NCCNS(=O)(=O)c1ccc(-c2cccc(C(=O)NC[C@@H](N)CO)c2N)c(-c2nn[nH]n2)c1S(N)(=O)=O [Example 332]", 0.48],
  ["Nc1nc2c(-c3ccc(S(=O)(=O)N4CC5CC4CS5(=O)=O)c(S(N)(=O)=O)c3-c3nnn[nH]3)cccc2s1 (stereo not shown) [Example 40]", 0.27],
  ["NCC(CN)NS(=O)(=O)c1ccc(-c2cccc3[nH]nnc23)c(-c2nn[nH]n2)c1S(N)(=O)=O [Example 403]", -0.27],
  ["Nc1nc2c(-c3ccc(S(=O)(=O)NCC4(N)CCOCC4)c(S(N)(=O)=O)c3-c3nnn[nH]3)cccc2s1.O=CO [Example 115, formate]", -0.49],
  ["NC[C@H](N)CNS(=O)(=O)c1ccc(-c2cccn3ccnc23)c(-c2nn[nH]n2)c1S(N)(=O)=O [Example 374]", -0.56],
  ["Nc1nc2c(-c3ccc(S(=O)(=O)N[C@]4(CO)CCNC4)c(S(N)(=O)=O)c3-c3nnn[nH]3)cccc2[nH]1 [Example 177]", -0.06],
  ["Cn1c(N)nc2c(-c3ccc(S(=O)(=O)N[C@@H]4CCNC4)c(S(N)(=O)=O)c3-c3nn[nH]n3)cccc21 [Example 164]", -0.57],
  ["Nc1nc2c(-c3ccc(S(=O)(=O)NC4CCNCC4)c(S(N)(=O)=O)c3-c3nnn[nH]3)cccc2s1 [Example 32]", -0.47],
  ["CN(C1CCS(=O)(=O)C1)S(=O)(=O)c1ccc(-c2cccc3sc(N)nc23)c(-c2nnn[nH]2)c1S(N)(=O)=O (stereo not shown) [Example 41]", -0.09],
  ["C[C@@H](CN)NS(=O)(=O)c1ccc(-c2ccnc(N)c2)c(-c2nn[nH]n2)c1S(N)(=O)=O [Example 398]", 0.87],
  ["Cn1c(N)nc2c(-c3ccc(S(=O)(=O)NC[C@H](O)CN)c(S(N)(=O)=O)c3-c3nn[nH]n3)cccc21 [Example 302]", -0.47],
  ["CC(C)(CN)NS(=O)(=O)c1ccc(-c2cccnc2N)c(-c2nn[nH]n2)c1S(N)(=O)=O [Example 211]", 0.35],
  ["CCC1(NS(=O)(=O)c2ccc(-c3cccc4sc(N)nc34)c(-c3nnn[nH]3)c2S(N)(=O)=O)CCNC1 (stereo not shown) [Example 56]", -0.47],
  ["NC[C@H](O)CNS(=O)(=O)c1ccc(-c2ccncc2N)c(-c2nn[nH]n2)c1S(N)(=O)=O [Example 222]", 0.08],
  ["CN(C)S(=O)(=O)c1ccc(-c2cccc3sc(N)nc23)c(-c2nn[nH]n2)c1S(N)(=O)=O [Example 151]", 0.39],
  ["NS(=O)(=O)c1c(S(=O)(=O)N[C@@H]2CCNC2)ccc(-c2cccc3[nH]cnc23)c1-c1nn[nH]n1 [Example 193]", -0.68],
  ["NC[C@H](CO)NS(=O)(=O)c1ccc(-c2cccc3sc(N)nc23)c(-c2nnn[nH]2)c1S(N)(=O)=O [Example 202]", -0.15],
  ["Nc1nc2c(-c3ccc(S(=O)(=O)N4CCC(N)(CO)C4)c(S(N)(=O)=O)c3-c3nnn[nH]3)cccc2s1 (stereo not shown) [Example 55]", -0.07],
  ["NC1CCC(c2ccc(S(N)(=O)=O)c(S(N)(=O)=O)c2-c2nnn[nH]2)CC1 (stereo not shown) [Example 165]", 1.39],
  ["Nc1nc2c(-c3ccc(S(=O)(=O)N[C@H]4CCCNC4)c(S(N)(=O)=O)c3-c3nnn[nH]3)cccc2[nH]1 [Example 179]", 0.48],
  ["NCCNS(=O)(=O)c1ccc(-c2ccc3[nH]c(CN)nc3c2)c(-c2nn[nH]n2)c1S(N)(=O)=O [Example 466]", -0.01]
]}

---

Molecular target: UniProt C7C422
Sequence (C7C422 whole entry, looked up, species assumed): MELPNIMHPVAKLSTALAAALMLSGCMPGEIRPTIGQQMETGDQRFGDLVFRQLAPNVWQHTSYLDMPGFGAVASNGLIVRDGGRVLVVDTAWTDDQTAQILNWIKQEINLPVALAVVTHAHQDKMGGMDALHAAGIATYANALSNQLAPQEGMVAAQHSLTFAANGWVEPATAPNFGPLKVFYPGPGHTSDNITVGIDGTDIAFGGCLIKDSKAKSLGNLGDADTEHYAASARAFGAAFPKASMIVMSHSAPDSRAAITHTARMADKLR
Assay: biochemical
Type: biochemical
Details: fluorescence assay, CCF2-FA substrate, 1 pM enzyme, 2 hours at 25° C.; read-out: NDM-1 IC50

{"columns": ["molecule", "unit.of.measure", "IC50"],
 "data": [
  ["C[C@@H](CN)NS(=O)(=O)c1ccc(-c2cccc3sc(N)nc23)c(-c2nn[nH]n2)c1S(N)(=O)=O [Example 389]", "nM", 0.289],
  ["CC(CN)NS(=O)(=O)c1ccc(-c2cccc3sc(N)nc23)c(-c2nnn[nH]2)c1S(N)(=O)=O.O=CO (stereo not drawn) [Example 116, formate]", "nM", 0.0239],
  ["Nc1nc2c(-c3ccc(S(=O)(=O)NCC4CCNC4)c(S(N)(=O)=O)c3-c3nnn[nH]3)cccc2s1.O=CO (stereo not drawn) [Example 120, formate]", "nM", 0.0495]
]}
